The measured values listed here are drawn from paper PMC6155811.

Attribute: IC50
- study_system: Porcine pancreatic α-amylase (Sus scrofa, UniProt P00690)
- Construct: purchased Sigma-Aldrich Chemie GmbH
- Sequence (P00690 16-511): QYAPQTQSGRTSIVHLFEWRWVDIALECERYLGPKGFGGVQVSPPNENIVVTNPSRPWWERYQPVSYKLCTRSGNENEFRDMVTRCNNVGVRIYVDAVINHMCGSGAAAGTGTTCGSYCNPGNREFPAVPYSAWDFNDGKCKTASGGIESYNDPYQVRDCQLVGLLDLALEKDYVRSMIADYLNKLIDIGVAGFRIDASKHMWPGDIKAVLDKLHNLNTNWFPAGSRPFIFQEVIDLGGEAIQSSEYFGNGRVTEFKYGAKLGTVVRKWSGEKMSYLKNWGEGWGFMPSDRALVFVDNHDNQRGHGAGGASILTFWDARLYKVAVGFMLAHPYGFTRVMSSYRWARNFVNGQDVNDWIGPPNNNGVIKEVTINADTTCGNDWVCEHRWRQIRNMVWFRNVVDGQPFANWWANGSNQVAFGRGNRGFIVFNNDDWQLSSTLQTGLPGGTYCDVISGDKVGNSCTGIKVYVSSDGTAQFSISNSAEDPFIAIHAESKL
- measurement_protocol: α-Amylase inhibitory activity
- Format: biochemical
- condition_parameters: phenolic compounds and metabolites; IC50 ± SD
Report the figure in µM without appending any unit label.

Some solved cases for reference:
| molecule | measurement_type | recorded_measurement |
| --- | --- | --- |
| O=c1c(OC2OC(CO)C(O)C(O)C2O)c(-c2ccc(O)c(O)c2)oc2cc(O)cc(O)c12 (stereo not shown) [Quercetin-3-glucoside] | IC50 | 3 |
| Oc1cc(O)c2c(c1)O[C@H](c1ccc(O)c(O)c1)[C@H](O)C2 [Epicatechin] | IC50 | 9.7 |
| CC1OC(Oc2c(-c3ccc(O)c(O)c3)oc3cc(O)cc(O)c3c2=O)C(O)C(O)C1O (stereo not shown) [Quercetin-3-rhamnoside] | IC50 | 3.5 |

// next item, IC50 requested
Problem: # IC50 lookup, item O=C(O)Cc1cccc(O)c1 [3-Hydroxyphenylacetic acid]
Result: 44.8

###

Entries and their increase in oleic acid uptake values follow.
- Test system: human skeletal muscle cells
- measurement_protocol: Oleic acid uptake in human myotubes ([14C]-oleic acid)
- Assay type: cell-based
- condition_parameters: 10 µM (highest concentration tested), 2 days, vs 0.1% DMSO control

| molecule | increase in oleic acid uptake |
| --- | --- |
| O=c1c(OC2OC(CO)C(O)C(O)C2O)c(-c2ccc(O)c(O)c2)oc2cc(O)cc(O)c12 (stereo not shown) [Quercetin-3-glucoside] | 13.1% ± 3.5% |
| O=C(/C=C/c1ccc(O)c(O)c1)O[C@@H]1C[C@](O)(C(=O)O)C[C@@H](O)[C@H]1O [Chlorogenic acid] | 17.3% ± 2.5% |
| O=c1c(O)c(-c2ccc(O)cc2)oc2cc(O)cc(O)c12 [Kaempferol] | 25.0% ± 3.0% |

We now examine a further molecule.
Problem: Fill in the blank: the reported increase in oleic acid uptake of CC1OC(Oc2c(-c3ccc(O)c(O)c3)oc3cc(O)cc(O)c3c2=O)C(O)C(O)C1O (stereo not shown) [Quercetin-3-rhamnoside] is ____.
Result: 5.0% ± 6.0%

###

- study_system: 15-lipoxygenase (15-LO) from soybeans (Glycine max, UniProt P08170)
- Construct: 15-lipoxygenase (15-LO) from soybeans; purchased Sigma-Aldrich (St. Louis, MO, USA); host or cells: soybeans
- Sequence (P08170 whole entry): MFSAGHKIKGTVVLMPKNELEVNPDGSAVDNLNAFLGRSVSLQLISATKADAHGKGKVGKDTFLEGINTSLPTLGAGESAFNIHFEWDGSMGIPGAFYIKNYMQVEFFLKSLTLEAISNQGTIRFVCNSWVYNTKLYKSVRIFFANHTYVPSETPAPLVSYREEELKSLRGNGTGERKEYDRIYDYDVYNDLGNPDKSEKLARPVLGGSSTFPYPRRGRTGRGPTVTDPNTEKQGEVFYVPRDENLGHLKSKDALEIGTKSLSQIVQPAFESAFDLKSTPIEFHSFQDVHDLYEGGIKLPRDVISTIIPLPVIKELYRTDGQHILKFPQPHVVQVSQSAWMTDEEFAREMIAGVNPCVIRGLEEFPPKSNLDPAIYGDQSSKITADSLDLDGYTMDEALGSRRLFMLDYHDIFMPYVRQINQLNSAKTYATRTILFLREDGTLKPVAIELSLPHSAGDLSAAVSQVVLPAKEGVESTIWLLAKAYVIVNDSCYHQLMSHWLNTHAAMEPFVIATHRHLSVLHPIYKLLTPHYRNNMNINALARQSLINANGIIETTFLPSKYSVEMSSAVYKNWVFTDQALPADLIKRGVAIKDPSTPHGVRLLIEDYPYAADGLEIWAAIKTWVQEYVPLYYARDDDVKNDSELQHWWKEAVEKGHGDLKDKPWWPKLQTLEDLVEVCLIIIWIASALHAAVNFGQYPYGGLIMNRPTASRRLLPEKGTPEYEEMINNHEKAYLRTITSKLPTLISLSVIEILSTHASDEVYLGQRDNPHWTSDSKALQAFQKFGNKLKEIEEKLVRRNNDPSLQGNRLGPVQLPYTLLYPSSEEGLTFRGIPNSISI
- measurement_protocol: Inhibition of 15-lipoxygenase
- Assay type: biochemical, soybean
- condition_parameters: phenolic compounds and metabolites; IC50 ± SD; read-out: 15-LO IC50
measurement_type: pIC50
API: returns pIC50 as number; meaning -log10 of concentration in mol/L.

| compound | study_system | pIC50 |
| --- | --- | --- |
| O=C(O)Cc1ccc(O)c(O)c1 [3,4-Dihydroxyphenylacetic acid] | 15-lipoxygenase (15-LO) from soybeans (Glycine max, UniProt P08170) | 3.87 |
| O=C(O)Cc1cccc(O)c1 [3-Hydroxyphenylacetic acid] | 15-lipoxygenase (15-LO) from soybeans (Glycine max, UniProt P08170) | 3.87 |
| CC1OC(OCC2OC(Oc3c(-c4ccc(O)cc4)oc4cc(O)cc(O)c4c3=O)C(O)C(O)C2O)C(O)C(O)C1O (stereo not drawn) [Kaempferol-3-rutinoside] | 15-lipoxygenase (15-LO) from soybeans (Glycine max, UniProt P08170) | 3.96 |

Here is another compound to look at.
Problem: Identify the measured pIC50 of CC1OC(Oc2c(-c3ccc(O)c(O)c3)oc3cc(O)cc(O)c3c2=O)C(O)C(O)C1O (stereo not drawn) [Quercetin-3-rhamnoside] for 15-lipoxygenase (15-LO) from soybeans (Glycine max, UniProt P08170).
Result: 3.96
